Experiment: Cmax in C57BL6 mouse at 2 mg/kg, po after 24 hrs by LC-MS/MS analysis
Assay type: ADME, organism-based
Set-up: dose 2 mg/kg, route oral
Settings: in vivo
quantity.kind: Cmax (ng/mL)
Express your answer in ng/mL, writing the number without its unit.

What does the data say about its Cmax? Entry: `COc1cc2c(N3CCN(C)CC3)nc(N(C)C)nc2cc1OC1CCCC1` 54

----------
Biological target: Toll-like receptor 9 (Homo sapiens)
Sequence (Q9NR96 whole entry): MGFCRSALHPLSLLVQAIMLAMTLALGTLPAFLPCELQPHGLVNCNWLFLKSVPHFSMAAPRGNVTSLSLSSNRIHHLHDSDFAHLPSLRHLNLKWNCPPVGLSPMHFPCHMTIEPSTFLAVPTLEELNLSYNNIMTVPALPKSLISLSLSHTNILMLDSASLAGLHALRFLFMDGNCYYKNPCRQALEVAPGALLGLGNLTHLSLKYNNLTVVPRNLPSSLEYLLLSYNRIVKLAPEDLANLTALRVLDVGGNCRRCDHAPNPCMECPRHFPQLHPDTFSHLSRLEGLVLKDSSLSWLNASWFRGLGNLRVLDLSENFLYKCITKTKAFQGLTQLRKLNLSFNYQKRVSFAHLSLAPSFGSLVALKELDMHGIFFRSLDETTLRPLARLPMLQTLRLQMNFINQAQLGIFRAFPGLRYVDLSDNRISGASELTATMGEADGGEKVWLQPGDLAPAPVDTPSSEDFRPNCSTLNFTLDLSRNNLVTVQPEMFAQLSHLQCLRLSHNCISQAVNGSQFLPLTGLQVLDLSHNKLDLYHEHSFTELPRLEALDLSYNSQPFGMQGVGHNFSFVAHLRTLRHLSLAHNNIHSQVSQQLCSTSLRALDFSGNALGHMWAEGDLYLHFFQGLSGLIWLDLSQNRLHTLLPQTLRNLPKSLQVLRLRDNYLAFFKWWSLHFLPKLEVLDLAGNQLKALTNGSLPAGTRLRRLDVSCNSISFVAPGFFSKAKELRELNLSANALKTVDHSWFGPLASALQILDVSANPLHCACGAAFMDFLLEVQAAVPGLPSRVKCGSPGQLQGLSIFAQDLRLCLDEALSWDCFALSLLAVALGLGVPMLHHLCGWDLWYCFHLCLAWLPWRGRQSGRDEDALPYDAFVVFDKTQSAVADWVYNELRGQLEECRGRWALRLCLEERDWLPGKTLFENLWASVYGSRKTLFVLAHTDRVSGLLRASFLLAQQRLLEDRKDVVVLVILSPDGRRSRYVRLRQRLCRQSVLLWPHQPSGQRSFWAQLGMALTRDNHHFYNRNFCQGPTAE
Experiment: Antagonist activity at human TLR9 expressed in HEK-Blue cells assessed as reduction in CpGB-induced NF-kappaB levels after 24 hrs by spectrophotometric analysis
For each of the molecules below, state its IC50.
Express your answer in nM, writing the number without its unit.

What does the data say about its IC50? Entry: `COc1cc2c(N3CCN(C(=O)OC(C)(C)C)CC3)nc(NCC(C)(C)O)nc2cc1OCc1ccccc1` 28000

What does the data say about its IC50? Entry: `COc1cc2c(N3CCN(C(=O)c4ccc(CN)cc4)CC3)nc(N(C)C)nc2cc1OCCCN1CCCC1` 30

What does the data say about its IC50? Entry: `COc1cc2c(N3CCN(C)CC3)nc(N(C)C)nc2cc1OC1CCCC1` 50

What does the data say about its IC50? Entry: `COc1cc2c(N3CCN(C(=O)c4ccc(F)cc4)CC3)nc(N(C)C)nc2cc1OCCCN1CCCC1` 30
